Data credit: patent US20230025732A1

Assayed System: T1, human CD39 expressed at the cell surface (human, UniProt P49961 1-510)
T1 construct: On CHO transfectants, Hek-293T transfectants, Ramos and Mino tumor cells; also called huCD39; CHO-huCD39
T1 sequence: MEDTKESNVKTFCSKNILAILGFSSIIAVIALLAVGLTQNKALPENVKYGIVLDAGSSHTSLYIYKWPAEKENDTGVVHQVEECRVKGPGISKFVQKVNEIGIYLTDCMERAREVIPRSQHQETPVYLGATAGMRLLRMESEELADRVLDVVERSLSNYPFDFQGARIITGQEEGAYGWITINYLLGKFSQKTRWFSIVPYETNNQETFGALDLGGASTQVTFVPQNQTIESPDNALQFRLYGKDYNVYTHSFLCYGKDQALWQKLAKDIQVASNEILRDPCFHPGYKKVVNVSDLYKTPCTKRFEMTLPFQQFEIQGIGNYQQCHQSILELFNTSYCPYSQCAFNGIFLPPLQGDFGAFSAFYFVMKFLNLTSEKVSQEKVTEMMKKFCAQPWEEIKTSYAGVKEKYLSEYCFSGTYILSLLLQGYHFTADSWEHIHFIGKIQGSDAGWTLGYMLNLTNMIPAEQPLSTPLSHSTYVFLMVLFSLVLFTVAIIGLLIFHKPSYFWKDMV
Assay Text: flow cytometry titration on Ramos lymphoma cells (Mean of Fluorescence), panel L0
Quantity Measured: binding result

* mAb19 H4L0 (antibody, human IgG1, V domains shown) VH: QVQLVQSGAEVKKPGASVKVSCKASGYTFTDYNMHWVRQAPGQRLEWIGYIVPLNGGSTFNQKFKGRATITVDTSARTAYMELSSLRSEDTAVYYCARGGTRFAYWGQGTLVTVSS VL: DIVMTQSPDSLAVSLGERATINCRASESVDNFGVSFMYWYQQKPGQPPKLLIYGASNQGSGVPDRFSGSGSGTDFTLTISSLQAEDVAVYYCQQTKEVPYTFGGGTKVEIK | binds
